tested on: soybean plants; conditions: soybean injury (epinasty and stunting) 14 days after 24 h vapour exposure to Petri dishes treated with 4480 g active ingredient per ha; normalized to 30% for the 2-(-aminoethoxy)ethanol salt
Rule: Injury (%) under 10% gives 0 (no), otherwise 1 (yes).

## Task Determine whether measured Injury (%) meets or exceeds 10% for COc1c(Cl)ccc(Cl)c1C(=O)O.NCCN1CCNCC1 [Dicamba salt: Aminoethylpiperazine]
## Result 1 (yes)

## Task Determine whether measured Injury (%) meets or exceeds 10% for CC1(C)CC(N)CC(C)(CN)C1.COc1c(Cl)ccc(Cl)c1C(=O)O [Dicamba salt: Isophorone diamine]
## Result 1 (yes)

## Task Determine whether measured Injury (%) meets or exceeds 10% for CN(C)CCCNCCCN(C)C.COc1c(Cl)ccc(Cl)c1C(=O)O [Dicamba salt: Jeffcat ® Z-130]
## Result 0 (no)

## Task Determine whether measured Injury (%) meets or exceeds 10% for COc1c(Cl)ccc(Cl)c1C(=O)O.NCCNCCO [Dicamba salt: Aminoethylethanolamine, aminoethylethanolamine salt of dicamba]
## Result 0 (no)

## Task Determine whether measured Injury (%) meets or exceeds 10% for COc1c(Cl)ccc(Cl)c1C(=O)O.NCCNCCN [Dicamba salt: Diethylenetriamine]
## Result 1 (yes)

## Task Determine whether measured Injury (%) meets or exceeds 10% for COc1c(Cl)ccc(Cl)c1C(=O)O [Dicamba acid, dicamba, reference compound]
## Result 1 (yes)

## Task Determine whether measured Injury (%) meets or exceeds 10% for COc1c(Cl)ccc(Cl)c1C(=O)O.NCCOCCO [Dicamba salt: 2-(-Aminoethoxy)ethanol, dicamba 2-(-Aminoethoxy)ethanol salt, reference compound]
## Result 1 (yes)

* * *

test: Volatility determined by TGA (thermal gravimetric analysis); assay type: physicochemical
measurementName: Volatility (wt % loss per min)
Quick note: give the figure in wt % loss per min, leave out the unit.

## Task May I ask what Volatility (wt % loss per min) has been recorded for `CN(CCCN)CCCN.COc1c(Cl)ccc(Cl)c1C(=O)O` ?
## Result 0.0003

## Task May I ask what Volatility (wt % loss per min) has been recorded for CNC.COc1c(Cl)ccc(Cl)c1C(=O)O [Dicamba salt: Dimethylamine, dicamba dimethylamine salt, reference compound] ?
## Result 0.011

## Task May I ask what Volatility (wt % loss per min) has been recorded for CNC.O=C(O)COc1ccc(Cl)cc1Cl [2,4-D salt: Dimethylamine, reference compound] ?
## Result 0.006

## Task May I ask what Volatility (wt % loss per min) has been recorded for `CN(CCCN)CCCN.O=C(O)CNCP(=O)(O)O` ?
## Result 0.002

* * *

Field: Volatility (wt % loss per min). Provide a value for each of the compounds that follow.
assay: Volatility determined by TGA (thermal gravimetric analysis); assay type: physicochemical; settings: Dicamba salts, aqueous solution 480 g/l; TGA isothermal at 100° C., slope between 400 min and 1200 min
Remember to quote the unit after the number.

## Task May I ask what Volatility (wt % loss per min) has been recorded for COc1c(Cl)ccc(Cl)c1C(=O)O.NCCN1CCNCC1 [Dicamba salt: Aminoethylpiperazine] ?
## Result 0.0002 wt % loss per min

## Task May I ask what Volatility (wt % loss per min) has been recorded for CC1(C)CC(N)CC(C)(CN)C1.COc1c(Cl)ccc(Cl)c1C(=O)O [Dicamba salt: Isophorone diamine] ?
## Result 0.0002 wt % loss per min

## Task May I ask what Volatility (wt % loss per min) has been recorded for CN(C)CCCN(C)CCCN(C)C.COc1c(Cl)ccc(Cl)c1C(=O)O [Dicamba salt: Jeffcat ZR-40] ?
## Result 0.0030 wt % loss per min

## Task May I ask what Volatility (wt % loss per min) has been recorded for COc1c(Cl)ccc(Cl)c1C(=O)O.NCCOCCO [Dicamba salt: 2-(-Aminoethoxy)ethanol, dicamba 2-(-Aminoethoxy)ethanol salt, reference compound] ?
## Result 0.0032 wt % loss per min

## Task May I ask what Volatility (wt % loss per min) has been recorded for COc1c(Cl)ccc(Cl)c1C(=O)O.NCCNCCN [Dicamba salt: Diethylenetriamine] ?
## Result 0.0004 wt % loss per min

## Task May I ask what Volatility (wt % loss per min) has been recorded for CN(C)CCCNCCCN(C)C.COc1c(Cl)ccc(Cl)c1C(=O)O [Dicamba salt: Jeffcat ® Z-130] ?
## Result 0.0017 wt % loss per min

## Task May I ask what Volatility (wt % loss per min) has been recorded for COc1c(Cl)ccc(Cl)c1C(=O)O [Dicamba acid, dicamba, reference compound] ?
## Result 0.060 wt % loss per min

## Task May I ask what Volatility (wt % loss per min) has been recorded for COc1c(Cl)ccc(Cl)c1C(=O)O.NCCNCCO [Dicamba salt: Aminoethylethanolamine, aminoethylethanolamine salt of dicamba] ?
## Result 0.0018 wt % loss per min
